- procedure-text: Solubility of prodrug in isopropyl myristate (IPM)
- applied-conditions: IPM, 23 ± 1° C.; value in parentheses
CIPM, equivalent mg of 5FU/ml values, listed per item

{"columns": ["molecule", "observed-result"],
 "data": [
  ["CCCCC(=O)n1cc(F)c(=O)n(C(=O)CCCC)c1=O [Compound 20]", "154 equivalent mg of 5FU/ml"],
  ["CCCCCCCCOC(=O)n1cc(F)c(=O)[nH]c1=O [Compound 12]", "4.72 equivalent mg of 5FU/ml"],
  ["CCOC(=O)n1cc(F)c(=O)[nH]c1=O [Compound 8]", "1.70 equivalent mg of 5FU/ml"]
]}

Exercise: Reported CIPM, equivalent mg of 5FU/ml for CCCC(=O)n1cc(F)c(=O)n(C(=O)CCC)c1=O [Compound 19] : what is it?
Key: 81.4 equivalent mg of 5FU/ml

Exercise: Repeat with CCC(=O)n1c(=O)[nH]cc(F)c1=O [Compound 14]
Key: 1.83 equivalent mg of 5FU/ml

Exercise: Repeat with CCCCCCCC(=O)n1cc(F)c(=O)[nH]c1=O [Compound 6]
Key: 14.4 equivalent mg of 5FU/ml

Exercise: Repeat with CCCC(=O)n1c(=O)[nH]cc(F)c1=O [Compound 15]
Key: 2.89 equivalent mg of 5FU/ml

* * *

- procedure-text: Solubility of prodrug in isopropyl myristate (IPM)
- applied-conditions: isopropyl myristate, organic solvent or mixture
solubility values, listed per item
Answer format: numeric, µg/mL implied, no suffix.

Exercise: Reported solubility for CCCCCC(=O)n1cc(F)c(=O)[nH]c1=O : what is it?
Key: 25700

* * *

Cs, amount of 5-FU in the skin values, listed per item
- procedure-text: Diffusion cell experiments: delivery of 5-FU through hairless mouse skin
- Format: in vitro ADME
- applied-conditions: leached from hairless mouse skin in 24 hours subsequent to application of prodrug in vehicle for 48 hours
Answer format: numeric, mg implied, no suffix.

{"columns": ["compound", "units-label", "Cs, amount of 5-FU in the skin"],
 "data": [
  ["CCCCCCCCOC(=O)n1cc(F)c(=O)[nH]c1=O [Compound 12]", "mg", 0.41],
  ["CCCCOC(=O)n1cc(F)c(=O)[nH]c1=O [Compound 10]", "mg", 0.54],
  ["CCCOC(=O)n1cc(F)c(=O)[nH]c1=O [Compound 9]", "mg", 0.65],
  ["CCCCC(=O)n1c(=O)[nH]cc(F)c1=O [Compound 16]", "mg", 0.38],
  ["COC(=O)n1cc(F)c(=O)[nH]c1=O [Compound 7]", "mg", 1.08]
]}

Exercise: Reported Cs, amount of 5-FU in the skin for CCCCC(=O)n1cc(F)c(=O)n(C(=O)CCCC)c1=O [Compound 20] : what is it?
Key: 1.14

Exercise: Repeat with CCCCC(=O)n1cc(F)c(=O)[nH]c1=O [Compound 4]
Key: 2.08

Exercise: Repeat with CCCC(=O)n1cc(F)c(=O)[nH]c1=O [Compound 3]
Key: 1.07

* * *

K, partition coefficient between IPM and pH 4.0 acetate buffer values, listed per item
- procedure-text: Partition coefficient between IPM and pH 4.0 acetate buffer
- Type: physicochemical
- applied-conditions: 23 ± 1° C.
- Source text: ^a Partition coefficient between IPM and pH 4.0 acetate buffer at 23

In the examples that follow, each entry is paired with its recorded K, partition coefficient between IPM and pH 4.0 acetate buffer.
{"columns": ["compound-structure-string", "observed-result"],
 "data": [
  ["CCCC(=O)n1cc(F)c(=O)[nH]c1=O", 2.69],
  ["CCC(=O)n1cc(F)c(=O)n(C(=O)CC)c1=O", 33.8],
  ["CC(=O)n1cc(F)c(=O)n(C(C)=O)c1=O", 2.93]
]}

Exercise: Reported K, partition coefficient between IPM and pH 4.0 acetate buffer for CCC(=O)n1c(=O)[nH]cc(F)c1=O : what is it?
Key: 0.088

Exercise: Repeat with CCCCC(=O)n1c(=O)[nH]cc(F)c1=O
Key: 1.65

Exercise: Repeat with CC(=O)n1cc(F)c(=O)[nH]c1=O
Key: 0.185

Data provenance is patent US5610160A.
